Tested on: morningglory
procedure.details: Test B preemergence/postemergence greenhouse plant response rating 0 to 10
Format: in vivo, Ipomoea hederacea
reported.conditions: Rate 200 g/ha, PREEMERGENCE; 0 to 10 scale
Listed here: items and their measured Plant response rating, Morningglory.

Solved cases (2 shown):
CC(C)Oc1cc(-c2nn3c(c2Br)CCCC3)c(F)cc1Cl [Compound 38]: 4
CC(C)Oc1cc(-c2nn3c(c2Cl)CCCC3)c(F)cc1Cl [Compound 21]: 2

Query: Fill in: Plant response rating, Morningglory of C=CCOc1cc(-c2nn3c(c2Br)CCCC3)c(F)cc1Cl [Compound 37] is ___
Result: 1

Query: Which value of Plant response rating, Morningglory has been reported for CCC(=O)Oc1cc(-c2nn3c(c2Cl)CCCC3)c(F)cc1Cl [Compound 47] in the records?
Result: 3

Query: Report Plant response rating, Morningglory for Fc1cc(Cl)c(OC2CCCC2)cc1-c1nn2c(c1Cl)CCCC2 [Compound 24] please.
Result: 5

Query: Entry under review: Clc1ccc(-c2nc3n(c2Br)CCCC3)c(Cl)c1 [Compound 2] . Reported Plant response rating, Morningglory?
Result: 0

Query: # input molecule: Clc1ccc(-c2nc3n(c2Cl)CCC=C3)c(Cl)c1 [Compound 1] ; wanted: its Plant response rating, Morningglory
Result: 0

----------
Recorded Plant response rating, Barley for the following compounds
Tested on: barley
procedure.details: Test B preemergence/postemergence greenhouse plant response rating 0 to 10
Type: in vivo, Hordeum vulgare
reported.conditions: PREEMERGENCE, Rate 10 g/ha; 0 to 10 scale

Please review the entries below; each comes with its answer.
CCCCN1C(=O)COc2cc(F)c(-c3nn4c(c3Cl)CCCC4)cc21: 0
CCCN1C(=O)COc2cc(F)c(-c3nn4c(c3Br)CCCC4)cc21: 0
C#CC(C)N1C(=O)COc2cc(F)c(-c3nn4c(c3Cl)CCCC4)cc21 (centres unmarked): 0

Query: I'd like to know its Plant response rating, Barley. The compound in question is C#CCN1C(=O)COc2cc(F)c(-c3nn4c(c3Br)CCCC4)cc21
Result: 0

Query: Request the reported Plant response rating, Barley associated with C=CCN1C(=O)COc2cc(F)c(-c3nn4c(c3Cl)CCCC4)cc21
Result: 0

----------
Test system: barnyardgrass
procedure.details: Test C flood test plant response rating 0 to 100
Type: in vivo, Echinochloa crus-galli
reported.conditions: POSTEMERGENCE section, flood test; Rate 4 g/ha
quantity.kind: Plant response rating (0 to 100), Barnyardgrass 2

Example results:
Fc1cc(Cl)c(OCCCl)cc1-c1nn2c(c1Cl)CCCC2 [Compound 49]: 90
C#CC(C)Oc1cc(-c2nn3c(c2Br)CCCC3)c(F)cc1Cl (stereo not shown) [Compound 66]: 10
COCN1C(=O)COc2cc(F)c(-c3nn4c(c3Br)CCCC4)cc21 [Compound 67]: 20

Please turn your attention to the following entry.
Query: Identify the measured Plant response rating (0 to 100), Barnyardgrass 2 of CCN1C(=O)COc2cc(F)c(-c3nn4c(c3Cl)CCCC4)cc21 [Compound 54] for barnyardgrass.
Result: 10

----------
System: giant foxtail
procedure.details: Test C preemergence/postemergence greenhouse plant response rating 0 to 100
Type: in vivo, Setaria faberii
reported.conditions: POSTEMERGENCE; Rate 4 g/ha
Overview of recorded Plant response rating (0 to 100), Giant foxtail for various compounds

Reference set, count: 6
COC(=O)C(C)Oc1cc(-c2nn3c(c2Cl)CCCC3)c(F)cc1Cl (stereo not shown) [Compound 28]: 20
CCC(C)Oc1cc(-c2nn3c(c2Cl)CCCC3)c(F)cc1Cl (stereo not shown) [Compound 48]: 20
C#CC(C)Oc1cc(-c2nn3c(c2Br)CCCC3)c(F)cc1Cl (stereo not shown) [Compound 66]: 30
CC(C)OC(=O)c1cc(-c2nn3c(c2Cl)CCCC3)c(F)cc1Cl [Compound 44]: 20
C#CC(C)N1C(=O)COc2cc(F)c(-c3nn4c(c3Cl)CCCC4)cc21 (stereo not shown) [Compound 50]: 30
Fc1cc(Cl)c(OCCCl)cc1-c1nn2c(c1Cl)CCCC2 [Compound 49]: 30

Here is the next item to consider.
Query: For CC(C)COc1cc(-c2nn3c(c2Cl)CCCC3)c(F)cc1Cl [Compound 30] , what is its reported Plant response rating (0 to 100), Giant foxtail?
Result: 0

----------
Some compounds, each annotated with its measured Plant response rating (0 to 10 scale), Barley.
Tested on: barley
procedure.details: Test B preemergence/postemergence greenhouse plant response rating 0 to 10
Assay type: in vivo, Hordeum vulgare
reported.conditions: PREEMERGENCE, Rate 200 g/ha

Reference set (4 entries):
CC(C)(C)C(=O)COc1cc(-c2nn3c(c2Cl)CCCC3)c(Cl)cc1Cl: 0
C#CC(C)Oc1cc(-c2nn3c(c2Cl)CCCC3)c(Cl)cc1Cl (centres unmarked): 0
CCOC(=O)c1cc(-c2nn3c(c2Cl)CCCC3)c(F)cc1Cl: 0
C=CCOc1cc(-c2nn3c(c2Cl)CCCC3)c(Cl)cc1Cl: 0

From here, focus on the item given below.
Query: Which Plant response rating (0 to 10 scale), Barley reading was recorded for the compound FCCCOc1cc(-c2nn3c(c2Cl)CCCC3)c(F)cc1Cl ?
Result: 2

----------
Test system: corn
procedure.details: Test B preemergence/postemergence greenhouse plant response rating 0 to 10
Format: in vivo, Zea mays
reported.conditions: PREEMERGENCE, Rate 200 g/ha
quantity.kind: Plant response rating (0 to 10 scale), Corn
Could you keep your reply to the number by itself?

Below, each entry is followed by its recorded Plant response rating (0 to 10 scale), Corn result.
O=C1COc2cc(F)c(-c3nn4c(c3Br)CCCC4)cc2N1 [Compound 80]: 0
CC(C)(C)C(=O)COc1cc(-c2nn3c(c2Cl)CCCC3)c(Cl)cc1Cl [Compound 77]: 0
CON=C(C)c1cc(-c2nn3c(c2Cl)CCCC3)c(F)cc1Cl [Compound 82]: 3

Turning now to a further molecule:
Query: Which value of Plant response rating (0 to 10 scale), Corn has been reported for C#CC(C)Oc1cc(-c2nn3c(c2Cl)CCCC3)c(Cl)cc1Cl (stereo not shown) [Compound 74] in the records?
Result: 0

----------
Tested on: corn
procedure.details: Test C preemergence/postemergence greenhouse plant response rating 0 to 100
Format: in vivo, Zea mays
reported.conditions: Rate 16 g/ha; POSTEMERGENCE
From the text: The compounds evaluated in this test were formulated in a non-phytoxic solvent and applied to the soil surface before plant seedlings emerged (preemergence application), to water that covered the soil surface (flood application), and to plants that were in the one-to-four leaf stage (postemergence application). A sandy loam soil was used for the preemergence and postemergence tests, while a silt loam soil was used in the flood test. […]
A collection of compounds and their measured Plant response rating (0 to 100), Corn
Number, no unit, nothing else.

Completed entries (count: 5):
C#CC(C)N1C(=O)COc2cc(F)c(-c3nn4c(c3Cl)CCCC4)cc21 (stereo not drawn) [Compound 50]: 40
CCC(C)Oc1cc(-c2nn3c(c2Cl)CCCC3)c(F)cc1Cl (stereo not drawn) [Compound 48]: 30
C#CC(C)Oc1cc(-c2nn3c(c2Br)CCCC3)c(F)cc1Cl (stereo not drawn) [Compound 66]: 30
Fc1cc(Cl)c(OCCCl)cc1-c1nn2c(c1Cl)CCCC2 [Compound 49]: 30
CC(C)N1C(=O)COc2cc(F)c(-c3nn4c(c3Cl)CCCC4)cc21 [Compound 31]: 40

Attention now turns to another entry.
Query: Given the entry CC(C)OC(=O)COc1cc(-c2nn3c(c2Cl)CCCC3)c(F)cc1Cl [Compound 39] , what Plant response rating (0 to 100), Corn was observed with corn?
Result: 20

----------
Test system: bedstraw
procedure.details: Test B preemergence/postemergence greenhouse plant response rating 0 to 10
Type: in vivo, Galium aparine
reported.conditions: POSTEMERGENCE, Rate 50 g/ha
Measured Plant response rating (0 to 10 scale), Bedstraw values are reported for all entries that follow.

These solved cases illustrate the format of a correct answer.
Fc1cc(Cl)c(OCc2ccccc2)cc1-c1nn2c(c1Cl)CCCC2: 8
COC(=O)C(C)Oc1cc(-c2nn3c(c2Cl)CCCC3)c(F)cc1Cl (centres unmarked): 9
CC(C)Oc1cc(-c2nn3c(c2Cl)CCCC3)c(F)cc1Cl: 6
COc1cc(-c2nn3c(c2Cl)CCCC3)c(F)cc1Cl: 7

Kindly review the next molecule as well.
Query: Form field: reported Plant response rating (0 to 10 scale), Bedstraw of CCCN1C(=O)COc2cc(F)c(-c3nn4c(c3Cl)CCCC4)cc21
Result: 10

----------
System: common purslane
procedure.details: Test G preemergence/postemergence greenhouse plant response rating 0 to 100
Type: in vivo, Portulaca oleracea
reported.conditions: POSTEMERGENCE, Rate 125 g/ha, 0 to 100 scale
We begin with a simple list: items and their reported Plant response rating, Cmn Purslane.
Simply state the number, no unit and no words.

CCS(=O)(=O)Oc1cc(-c2nn3c(c2Cl)CCCC3)c(F)cc1Cl [Compound 25]: 100

Query: For the compound shown here, Fc1cc(Cl)c(OCc2ccccc2)cc1-c1nn2c(c1Cl)CCCC2 [Compound 22] , give the reported Plant response rating, Cmn Purslane.
Result: 80
